endpoint label: logP

| compound structure | endpoint label | observed result |
| --- | --- | --- |
| COC(=O)c1c(Cl)cccc1[N+](=O)[O-] | logP | 2.21 |
| CCOc1cccc(OC(C)=O)c1 | logP | 2.08 |
| COC(=O)c1c(F)cccc1Cl | logP | 2.42 |

a. N#Cc1ccccc1C(N)=O
b. O=C(O)c1c(F)cccc1Cl
c. CSc1ccccc1C(N)=O
d. CCc1cccc(CC)c1OC(C)=O
e. NC(=O)c1ccccc1[N+](=O)[O-]
Ascending by logP, please: list the compounds accordingly. Returns: the labels listed in the requested order. e, a, c, b, d

a. COC(=O)c1cccc([N+](=O)[O-])c1
b. COC(=O)c1ccc(C)cc1
Sorting ascending by logP, which comes first: a or b ? Reply with the label of the item you choose. a
(a: 1.89, b: 2.7)

1. Cc1cccc(Cl)c1C(=O)O
2. O=C(O)c1c(Br)cccc1Br
3. O=C(O)c1c(F)cccc1F
Exam item: list the entries in increasing order of logP. Labels, requested order. 3, 1, 2
(3: 1.59, 1: 2.31, 2: 3.58)

A. COC(=O)c1c(F)cccc1F
B. COC(=O)c1cccc(Cl)c1
Recorded logP values differ for A and B ; which one is higher? I would appreciate it if you answered with the label of your choice. B

1. COC(=O)c1ccccc1OC
2. COC(=O)c1ccc(Br)cc1
Lab notebook, comparison: 1 versus 2 , higher logP goes to which? Please indicate the selected item by its label. 2

P. COC(=O)c1cccc(C)c1
Q. COC(=O)c1ccccc1F
Determine, for P and Q , which has the greater value of logP. Identify your selection by its label. P

A. CC(=O)Oc1c(C)cccc1C
B. COc1cccc(OC(C)=O)c1
Which of the two items, A and B , has the greater recorded logP? Give the label of your selection. A

a. COC(=O)c1ccc(F)cc1
b. O=C(O)c1c(Cl)cccc1[N+](=O)[O-]
Lower value of logP belongs to which: a or b ? Respond with the label that goes with your answer. b

###

# experimental protocol: method code SF-AS, from DOI: 10.1002/jps.2600820804
endpoint label: logP

Here is how some compounds turned out for logP.
| compound structure | observed result |
| --- | --- |
| COC(=O)c1ccccc1[N+](=O)[O-] | 1.66 |
| COC(=O)c1c(C)cccc1C | 2.55 |
| Oc1c(F)cccc1F | 1.96 |

A. COC(=O)c1ccc([N+](=O)[O-])cc1
B. Cc1cccc(Cl)c1O
Smaller logP value, A vs B ? Reply with the label of the item you choose. A

###

# experimental protocol: method code SF-AS, from DOI: 10.1002/jps.2600820804
endpoint label: logP

| compound structure | observed result |
| --- | --- |
| CC(=O)Oc1c(Cl)cccc1Cl | 2.94 |
| CCc1cccc(OC(C)=O)c1 | 2.45 |
| COC(=O)c1c(Cl)cccc1Cl | 2.79 |
| CCc1cccc(CC)c1O | 3.03 |
| Cc1cccc(C)c1C(=O)O | 2.21 |
| COC(=O)c1ccccc1I | 2.74 |
| Oc1c(Br)cccc1Br | 3.36 |
